target of assay: HLA-B*08:01
test name: IEDB peptide-MHC binding, purified MHC/competitive/fluorescence; bounds were set here for any values at or beyond the usual limits of such assays
details: source organism: Vaccinia virus WR
endpoint name: IC50 (µM)
Numeric answer only, unit µM assumed.

Which IC50 is listed for RLPKRSVML ?
15.2

* * *

target of assay: HLA-B*40:01
test name: IEDB peptide-MHC binding, purified MHC/direct/fluorescence; filed as Kd, often an IC50 or EC50 that approximates it; bounds were set here for any values at or beyond the usual limits of such assays
details: source organism: Rickettsia prowazekii
endpoint name: Kd
For clarity, give the value followed by its unit.

Which Kd is listed for GQFGSGWTW ?
2870 nM
